Collected log10(IC50) for 5-hydroxytryptamine receptor 1A (Rattus norvegicus) across several studies; compounds listed below.
study_system: 5-hydroxytryptamine receptor 1A (Rattus norvegicus)
Sequence (P19327 whole entry): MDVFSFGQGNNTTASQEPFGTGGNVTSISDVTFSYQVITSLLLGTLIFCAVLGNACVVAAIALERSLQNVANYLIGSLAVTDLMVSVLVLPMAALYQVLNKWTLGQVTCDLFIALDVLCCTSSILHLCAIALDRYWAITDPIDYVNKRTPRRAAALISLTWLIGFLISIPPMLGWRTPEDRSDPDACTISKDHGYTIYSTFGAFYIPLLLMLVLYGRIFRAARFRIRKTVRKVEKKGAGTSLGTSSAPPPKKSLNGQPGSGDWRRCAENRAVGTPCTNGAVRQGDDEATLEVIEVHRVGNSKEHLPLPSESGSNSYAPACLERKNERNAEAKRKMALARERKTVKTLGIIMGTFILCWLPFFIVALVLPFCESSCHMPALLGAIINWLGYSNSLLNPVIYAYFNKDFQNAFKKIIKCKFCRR
Use the decimal logarithm of IC50 (nM).

Req: Return reported log10(IC50). Input compound: COc1ccc2c(c1)CCC(CCN1CCN(c3ccccc3)CC1)C2 (stereo not drawn)
Resp: 0.57

Req: Return reported log10(IC50). Input compound: `CN(CCCCN1CCN(c2nsc3ccccc23)CC1)C(=O)c1ccccc1N.Cl`
Resp: 0.08

Req: Return reported log10(IC50). Input compound: `Fc1ccccc1N1CCN(Cc2cn(-c3ccccc3)c(-c3ccccc3)n2)CC1`
Resp: 2.52

Req: Return reported log10(IC50). Input compound: COc1cccc2c1CCC(CCN1CCN(c3ccccc3)CC1)C2 (stereo not drawn)
Resp: 1.73

Req: Return reported log10(IC50). Input compound: `c1ccc(-c2nc(CN3CCN(c4ccccc4)CC3)cn2-c2ccccc2)cc1`
Resp: 3.43

Req: Return reported log10(IC50). Input compound: `Fc1ccc(-c2nc(CN3CCN(c4ccccc4)CC3)cn2-c2ccc(F)cc2)cc1`
Resp: 2.72

Req: Return reported log10(IC50). Input compound: COc1cccc(CN2CCN(C3CCC(O)(c4ccc5c(c4)OCO5)CC3)CC2)c1F (stereo not drawn)
Resp: 1.28

Req: Return reported log10(IC50). Input compound: `COc1ccc2c(c1)CCC=C2CCCN1CCN(c2cccc(Cl)c2)CC1`
Resp: 2.12

====

Collected pIC50 for 5-hydroxytryptamine receptor 1A (Rattus norvegicus, UniProt P19327) across several studies; compounds listed below.
study_system: 5-hydroxytryptamine receptor 1A (Rattus norvegicus, UniProt P19327)
Sequence (P19327 whole entry): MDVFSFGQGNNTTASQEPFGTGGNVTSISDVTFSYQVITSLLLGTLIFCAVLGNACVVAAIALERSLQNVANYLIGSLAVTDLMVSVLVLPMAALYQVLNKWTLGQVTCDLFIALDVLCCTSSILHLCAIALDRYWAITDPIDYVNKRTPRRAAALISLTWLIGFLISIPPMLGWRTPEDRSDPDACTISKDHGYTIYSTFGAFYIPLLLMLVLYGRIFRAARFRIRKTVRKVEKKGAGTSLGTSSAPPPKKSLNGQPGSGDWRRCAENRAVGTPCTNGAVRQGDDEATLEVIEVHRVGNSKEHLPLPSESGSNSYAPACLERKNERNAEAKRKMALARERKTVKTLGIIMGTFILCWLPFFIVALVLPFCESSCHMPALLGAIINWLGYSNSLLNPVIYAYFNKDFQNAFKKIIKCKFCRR
pIC50: −log10 of the molar value.
In this scheme, each record receives a class according to its pIC50; the ranges are low bin = under 7, mid bin = from 7 up to 8, high bin = 8 and over

Req: Dear colleague, I would appreciate it if you could identify the bin for `COc1ccc2[nH]cc(CCCCN3CCN(c4cc(C)c(OC)c(C)c4)CC3)c2c1` and reply at your convenience.
Resp: mid bin

Req: Dear colleague, I would appreciate it if you could identify the bin for `COc1cccc2c1CCC=C2CCCN1CCN(c2cccc(C(F)(F)F)c2)CC1` and reply at your convenience.
Resp: mid bin

Req: Dear colleague, I would appreciate it if you could identify the bin for `CC(C)(C)OC(=O)Nc1ccc(C(=O)NCCCCN2CCN(c3nsc4ccccc34)CC2)cc1.Cl` and reply at your convenience.
Resp: high bin

Req: Dear colleague, I would appreciate it if you could identify the bin for `COc1cccc2c1CCC[C@H]2CCCN1CCN(c2ccccn2)CC1` and reply at your convenience.
Resp: high bin

Req: Dear colleague, I would appreciate it if you could identify the bin for `CN(CCN1CCC(c2noc3cc(F)ccc23)CC1)C(=O)c1nsc2ccccc12` and reply at your convenience.
Resp: low bin

Req: Dear colleague, I would appreciate it if you could identify the bin for O=C1c2ccccc2C(=O)N1CC1CC1CN1CCN(c2nsc3ccccc23)CC1 (stereo unspecified) and reply at your convenience.
Resp: mid bin

Req: Dear colleague, I would appreciate it if you could identify the bin for `N#Cc1ccccc1N1CCN(CCCCc2c[nH]c3ccc(C(N)=O)cc23)CC1` and reply at your convenience.
Resp: high bin

Req: Dear colleague, I would appreciate it if you could identify the bin for `COc1ccccc1N1CCN(CC/C=C2\CCCc3ccccc32)CC1` and reply at your convenience.
Resp: high bin

Req: Dear colleague, I would appreciate it if you could identify the bin for `O=C1c2ccccc2C(=O)N1CCOCCN1CCN(c2nsc3ccccc23)CC1` and reply at your convenience.
Resp: mid bin

Req: Dear colleague, I would appreciate it if you could identify the bin for `CN(CCCN1CCC(C(=O)c2ccc(F)cc2)CC1)C(=O)c1noc2ccccc12` and reply at your convenience.
Resp: low bin

Req: Dear colleague, I would appreciate it if you could identify the bin for `O=C1CC2(CCCC2)CC(=O)N1OCCCN1CCN(c2cccc(Cl)c2)CC1` and reply at your convenience.
Resp: mid bin
